System: UO-31
Test: NCI tumour cell line growth inhibition, 48 h
Calls of active or inactive are those of the source. No stated cut-off is given here; in the data, active = GI50 up to about 1.1 µM and inactive = higher.
Lab note: assign the record to one of 1.0 for active, 0.0 for inactive

As a guide, the following entries are already answered.
COMPOUND: CCOc1cc2c(cc1O)C(O)C[C@@H]1[C@@H]2CC[C@]2(C)[C@@H](O)CC[C@@H]12 (some centres not stated)
CLASS_LABEL: 1.0
--
COMPOUND: CCSc1nc(-c2ccc(OC)cc2)c(C#N)c(=O)n1C1OCC(OC(C)=O)C(OC(C)=O)C1OC(C)=O (configuration not stated)
CLASS_LABEL: 0.0
--
COMPOUND: Cc1c2oc3c(C)cc(F)c(C(=O)NC4C(=O)NC(C(C)C)C(=O)N5CCCC5C(=O)N(C)CC(=O)N(C)C(C(C)C)C(=O)OC4C)c3nc-2c(C(=O)NC2C(=O)NC(C(C)C)C(=O)N3CCCC3C(=O)N(C)CC(=O)N(C)C(C(C)C)C(=O)OC2C)c(N)c1=O (configuration not stated)
CLASS_LABEL: 1.0
--
COMPOUND: O=c1nc2n3c4c(cccc4nc-2c(=O)[nH]1)CCC3
CLASS_LABEL: 0.0
--
COMPOUND: CC1=[N+](C)CCN1C
CLASS_LABEL: 0.0

Tell me the recorded outcome of this test for O=C1NC(=O)C2(CCCCCC2)N1 .
0.0

Which result was noted for this compound in the test: O=S1(=O)c2ccccc2N(c2ccccc2)c2nnnn21
0.0

What was the test verdict on CC(=O)Nc1ccc(C2=N/C(=C\c3ccc(Cl)c(Cl)c3)C(=O)O2)cc1 ?
0.0

Entry CCc1nc2ccc(/N=N/N(C)C)cc2[nH]1 : call = ?
0.0

Could you kindly confirm the outcome this assay logged for COC(=O)C1=C(N)C2=C(N)Oc3ccccc3C2CC1=C(C#N)C#N (configuration not stated) ?
0.0

Test call for this compound, please: COc1cc(-c2c(C#N)c(N)c(C#N)c3c2COc2ccccc2-3)cc(OC)c1OC
0.0

How did this test come out for Cn1/c(=N\c2ccccc2[N+](=O)[O-])sc2ccccc21 ?
0.0

Name the outcome recorded for [C-]#[N+]C(=C\c1ccc(O)cc1)/C(=C/c1ccc(O)cc1)[N+]#[C-] [XANTOCILLIN] in the assay.
0.0

Call for entry CC(C)(C)NC(=O)NC12CC3CC(CC(F)(C3)C1)C2 :
0.0

So what was the verdict on CN/N=C(/C=C/c1ccccc1)C(C)C in this test?
0.0

Write down the call the test reported for this compound. Item: C=C1C(=O)OC2C1CCC(C)C1(O)C=CC(=O)C21C (configuration not stated)
0.0

Assay result, entry CN(c1ccccc1)c1c(-c2ccccc2)c(=O)oc2c1ccc1occc12 — outcome?
0.0

Short answer needed: outcome of this test for O=C(CSc1nc2ccc(I)cc2c(=O)n1Cc1ccccc1)NN1C(=O)c2ccccc2C1=O ?
0.0

Hi, do you know how CCOC(=O)C(=O)/C(=C/n1c(=S)[nH]c2ccc([N+](=O)[O-])cc21)C(=O)OCC came out in this test?
0.0

What did this assay record as the result for CC(C)(C)c1ccc2c(c1)C(=O)c1ccccc1C2=O ?
0.0

Kindly provide the recorded test outcome for the following compound: O=S(=O)(O)C(c1ccccc1)C(O)c1ccccc1 (configuration not stated)
0.0

Tell me the recorded outcome of this test for COc1cc(/C=C2\C(=O)N(C(=O)Cc3ccccc3)N=C2C)cc(OC)c1OC .
0.0

Origin of measurements: ChEMBL document CHEMBL1201862
